Values compiled from PubChem BioAssay (NCI).

Assay: NCI Yeast Anticancer Drug Screen. Data for the sgs1 mgt1 strain (AID 161)
Conditions: S. cerevisiae sgs1 mgt1 strain, at 50.0 µM, active compounds read high
This is part of a sample that, as a whole, favours compounds with a hit. Of some 79,000 tested, about 15% had one in any assay.
PARAMETER: growth inhibition (%)
Expressed in %, but write only the number.

The compound listed as `N/C(CCOCC/C(N)=N\O)=N/O` has a reported growth inhibition of -22.4

The compound listed as `CC(=O)Nc1cccc(OCOc2ccc([N+](=O)[O-])cc2)c1` has a reported growth inhibition of 30.4

The compound listed as OCC1OC(n2c(=S)[nH]c3ccccc32)C(O)C1O (configuration not stated) has a reported growth inhibition of 5.4

The compound listed as `CCOCCOC(=O)c1ccc(C(N)=NC2CCCCC2)cc1` has a reported growth inhibition of 3.75

The compound listed as `Cc1nc2c3c4c(sc3nc(C)n2n1)CCCC4` has a reported growth inhibition of 22.2

The compound listed as `CCOC(=O)c1ccccc1O` has a reported growth inhibition of -8.6

The compound listed as COC1OC2COC(c3ccccc3)OC2C(NC(C)=O)C1OC(C)=O (configuration not stated) has a reported growth inhibition of 8.9

The compound listed as `O=C1CN(c2ccccc2)C(=O)CN1CCN1CC(=O)N(c2ccccc2)CC1=O` has a reported growth inhibition of -4.5

The compound listed as `NC(=O)c1ccc[n+](CCCCCCCCCCC(=O)[O-])c1` has a reported growth inhibition of 0.8

The compound listed as `CCOC(=O)C1=C(C(=O)c2ccccc2)C(c2ccc(Cl)cc2Cl)C(C(=O)c2ccccc2)=C(C(=O)OCC)N1` has a reported growth inhibition of -16.6

The compound listed as `O=S(=O)(Nc1ccc(Cl)cc1)c1ccc(F)cc1` has a reported growth inhibition of -11.6

The compound listed as `CCOC(=O)c1ccc(NC(=S)N(CCC#N)C2CCCCC2)cc1` has a reported growth inhibition of 62.5

The compound listed as OC(c1ccccc1)C(CN1CCCCC1)c1ccccc1 (configuration not stated) has a reported growth inhibition of 24.9

The compound listed as `O=[N+]([O-])c1ccc(CS(=O)(=O)O)cc1` has a reported growth inhibition of -6.4

The compound listed as `N#C/C(=C1/Sc2c(nc[nH]c2=O)N1c1ccccc1)c1nc2ccccc2[nH]1` has a reported growth inhibition of -51.9

The compound listed as `O=C(O)Cc1ccccc1C(=O)O` has a reported growth inhibition of 7.7

The compound listed as `Nc1nc(N)c(N)c(Nc2ccc(Cl)cc2)n1` has a reported growth inhibition of 9

###

Assay: NCI Yeast Anticancer Drug Screen. Data for the sgs1 mgt1 strain (AID 161)
Conditions: S. cerevisiae sgs1 mgt1 strain, at 50.0 µM, active compounds read high
Method: Growth inhibition of yeast strains with defined genetic alterations is measured as a screen for potential anti-cancer activity. Selected strains with alterations in DNA damage repair or cell cycle control were exposed to compounds and growth inhibition was measured relative to vehicle treated controls. The strain used in this assay is sgs1 mgt1
This is part of a sample that, as a whole, favours compounds with a hit. Of some 79,000 tested, about 15% had one in any assay.
Hi there, I'd appreciate the recorded growth inhibition for every entry that follows.
Expressed in %, but write only the number.

The compound listed as `COC(=O)c1cc(C(=O)OC)c(C(=O)OC)cc1C(=O)OC` has a reported growth inhibition of 15.8

The compound listed as CCC(O)CNCc1ccnc2ccc(OC)cc12 (stereo not drawn) has a reported growth inhibition of 0.45

The compound listed as `COc1ccc(C=Nc2ccc(O)cc2)cc1` has a reported growth inhibition of -8.35

The compound listed as `O=C(CNc1ccccc1[N+](=O)[O-])Nn1cnc2ccc(S(=O)(=O)Nc3ccccc3[N+](=O)[O-])cc2c1=O` has a reported growth inhibition of 39.8

The compound listed as `CCCCCCCCCCCCCCCCOc1ccc(-c2cc(=O)n(C)n2C)cc1OC` has a reported growth inhibition of -9.3

The compound listed as Cc1ccc(S(=O)(=O)NN=C2CC3C4CCC5C4CC3C25)cc1 (stereo not drawn) has a reported growth inhibition of 15.9

The compound listed as CCN(CC)C(=O)C1Cc2ccccc2N(C)C1 (stereo not drawn) has a reported growth inhibition of -10.4

The compound listed as COc1ccccc1/C=N/N1C(=O)C2C3C=CC(O3)C2C1=O (stereo not drawn) has a reported growth inhibition of 0.1

The compound listed as `CCCCCCCCCCCCCCCCc1c(C)nc(N(C)C)oc1=O` has a reported growth inhibition of -4.4

The compound listed as O=C(O)CN=CC(O)C(O)C(O)C(O)CO (stereo not drawn) has a reported growth inhibition of 3.9

The compound listed as CC(SC(=S)N1CCOCC1)c1cc2oc(=O)n(C)c2cc1Cl (stereo not drawn) has a reported growth inhibition of 8.35

The compound listed as NCC1OC(n2cnc3c(N)ncnc32)CC1O (stereo not drawn) has a reported growth inhibition of -17.8

The compound listed as CC(NC(=O)c1ccccc1)c1ccc[nH]1 (stereo not drawn) has a reported growth inhibition of 0.05

The compound listed as `C/C(=N\NC(=O)C[N+](C)(C)C)c1sc(-c2cccnc2)nc1C` has a reported growth inhibition of 6.5

The compound listed as COc1ccc2nc(NC(=O)C(=O)C(C(=O)c3ccccc3-c3ccccc3)C3OC(=O)c4ccccc43)sc2c1 (stereo not drawn) has a reported growth inhibition of -14.2

The compound listed as `CC(C)(CCCCC(C)(C)NC1=NCCO1)NC1=NCCO1` has a reported growth inhibition of 9.9

The compound listed as O=C(ON=C1c2ccccc2C(Br)C(Br)c2ccccc21)c1ccccc1 (stereo not drawn) has a reported growth inhibition of 35.7

The compound listed as `Cc1cccc(C)c1NC(=S)/N=C/C1=C(O)c2ccccc2C1=O` has a reported growth inhibition of -10.2

###

Experiment: NCI Yeast Anticancer Drug Screen. Data for the sgs1 mgt1 strain (AID 161)
Conditions: S. cerevisiae sgs1 mgt1 strain, at 50.0 µM
Compounds without any hit were thinned out: in the full panel of roughly 79,000, 15% have a hit. The source made the active and inactive calls. Cut-off read from the data, not from the text of the source: active = growth inhibition above about 70%; inactive = the rest. Where a SMILES comes first, the peptide text is derived from it. [ ]: non-standard residue; d: D form. Abu = CC[CH](N)C(=O)O
Pick one and only one: yes (1) = active, no (0) = inactive

**Query** Status in this test for `CCOC(=O)c1cnc2ccccc2c1` ?
**Result** no (0)

**Query** Status in this test for `CCO[Si](CCCN)(OCC)OCC` ?
**Result** no (0)

**Query** Status in this test for CCC(N)C(=O)NC(C(N)=O)C(C)C (centres undefined) (H-[Abu]-Val-NH2; configuration not given here) ?
**Result** no (0)

**Query** Status in this test for `N/N=C1/C(=N/O)CCc2nonc21` ?
**Result** no (0)

**Query** Status in this test for CC1CSC(=S)N1C(=O)N1C(=S)SCC1C (centres undefined) ?
**Result** no (0)

**Query** Status in this test for `CN=C(N/N=C/c1ccccc1)N(C)C` ?
**Result** no (0)

**Query** Status in this test for CN(C=O)C1CCC2C3CC=C4CC(OC=O)CCC4(C)C3CCC21C (centres undefined) ?
**Result** no (0)

**Query** Status in this test for `ClC(Cl)=C(Cl)C(Cl)(Cl)Cl` ?
**Result** no (0)

**Query** Status in this test for `CNC(=O)Nc1ccc(C(=O)O)cc1` ?
**Result** no (0)

**Query** Status in this test for `C[C@]12CCC(=O)C=C1CC[C@@H]1[C@@H]2C(=O)C[C@@]2(C)[C@H]1CC[C@]2(O)C(=O)C=O` ?
**Result** no (0)

**Query** Status in this test for CC(=O)OCC1OC(SC2=NC(=O)CS2)C(OC(C)=O)C(OC(C)=O)C1OC(C)=O (centres undefined) ?
**Result** no (0)

**Query** Status in this test for COc1ccc(C(c2cc(OC)c(OC)c(OC)c2)N2C(=O)CCC2C(=O)O)cc1 (centres undefined) ?
**Result** no (0)

**Query** Status in this test for `COc1ccccc1NC(=O)c1nc2ccc([N+](=O)[O-])cc2nc1C` ?
**Result** no (0)

**Query** Status in this test for `Cc1cc(C)c(Cc2c(C)cc(C)cc2C)c(C)c1` ?
**Result** no (0)

**Query** Status in this test for CN1CCCCC1CCN1CCCCC1 (centres undefined) ?
**Result** no (0)

**Query** Status in this test for CCOC(=O)C(O)Cc1cnc2ccccc2n1 (centres undefined) ?
**Result** no (0)

**Query** Status in this test for `CC1(C)C=C(S(=O)(=O)c2ccccc2)Oc2ccccc2O1` ?
**Result** no (0)

**Query** Status in this test for `CCCC(=O)N(CC)CC` ?
**Result** no (0)

**Query** Status in this test for `Cc1ccc(N=C=C(c2ccc(Cl)cc2)c2ccc(Cl)cc2)cc1` ?
**Result** yes (1)

**Query** Status in this test for `CN(C)CCC(N)(P(=O)([O-])[O-])P(=O)([O-])[O-].N.N.[Pt+2]` ?
**Result** no (0)

**Query** Status in this test for `Cc1ccc(C(=O)N(C(C)C)C(C)C)cc1N=NN(C)C` ?
**Result** no (0)

**Query** Status in this test for CC[N+]1(C)CC2CCC1C2 (centres undefined) ?
**Result** no (0)

**Query** Status in this test for `CC(=O)Nc1cc(C)ccn1` ?
**Result** no (0)

**Query** Status in this test for `C=C1CN(CCc2ccccc2)C(=S)S1` ?
**Result** no (0)

**Query** Status in this test for `CC[N+](CC)(CC)CCCC[P+](CC)(CC)CC` ?
**Result** no (0)

**Query** Status in this test for `CC(C)c1ccc(C(=O)OCCCc2ccccc2)cc1` ?
**Result** no (0)

**Query** Status in this test for `NC(=O)/C=C/c1cccnc1` ?
**Result** no (0)

**Query** Status in this test for `O=C/C(=C1/C=Cc2cc([N+](=O)[O-])ccc2S1)c1ccccc1` ?
**Result** no (0)

**Query** Status in this test for `CCOP(=O)(OCC)/C(=C/NC(=S)c1cccnc1)C(=O)OC` ?
**Result** no (0)

**Query** Status in this test for `CCOC(=O)c1ccc(NC(=O)Oc2cc(C)c(Cl)c(C)c2)cc1` ?
**Result** no (0)

**Query** Status in this test for `[Cl][Pt+2][Cl].[NH-]C1CCC1.[NH2-]` ?
**Result** no (0)

**Query** Status in this test for `O=S(=O)(O)Cc1ccc(CS(=O)(=O)O)cc1` ?
**Result** no (0)

**Query** Status in this test for `CC(C)NC(=O)c1ccccc1Sc1ccccc1CN(C)C(C)C` ?
**Result** no (0)

**Query** Status in this test for `CCCc1c(Cl)nc(Cl)nc1Cl` ?
**Result** no (0)

**Query** Status in this test for CCCCCCCCCC1OC(C)C(C)O1 (centres undefined) ?
**Result** no (0)

**Query** Status in this test for `CCOC(=O)Nc1nc2ccn(C)c2s1` ?
**Result** no (0)

**Query** Status in this test for `CC1=NCCN1CCN` ?
**Result** no (0)

**Query** Status in this test for `O=C(O)c1cc(O)c(C(=O)O)cc1O` ?
**Result** no (0)

**Query** Status in this test for `O=C(NNc1nc(CCl)cs1)c1ccccc1Cl` ?
**Result** no (0)
